Origin of values: ChEMBL document CHEMBL4433255

Tested on: Mus musculus
Assay: Immunosuppressive activity in BALB/c mouse assessed as inhibition of leukocyte homing to peyer's patches orally dosed by FACS analysis
Format: functional, organism-based
PROPERTY MEASURED: EC50 (nM)
Dear colleague, please return just the value in nM, with no unit written.

Observed EC50 on Mus musculus for "CN(C)c1ccc2c(c1)c(=O)n(-c1ccc(C[C@H](NC(=O)c3c(Cl)cccc3Cl)C(=O)O)cc1)c(=O)n2C" , please.
180

###

Molecular target: Integrin alpha-4/beta-7 (Homo sapiens, UniProt P13612+P26010)
Sequence (P13612 whole entry): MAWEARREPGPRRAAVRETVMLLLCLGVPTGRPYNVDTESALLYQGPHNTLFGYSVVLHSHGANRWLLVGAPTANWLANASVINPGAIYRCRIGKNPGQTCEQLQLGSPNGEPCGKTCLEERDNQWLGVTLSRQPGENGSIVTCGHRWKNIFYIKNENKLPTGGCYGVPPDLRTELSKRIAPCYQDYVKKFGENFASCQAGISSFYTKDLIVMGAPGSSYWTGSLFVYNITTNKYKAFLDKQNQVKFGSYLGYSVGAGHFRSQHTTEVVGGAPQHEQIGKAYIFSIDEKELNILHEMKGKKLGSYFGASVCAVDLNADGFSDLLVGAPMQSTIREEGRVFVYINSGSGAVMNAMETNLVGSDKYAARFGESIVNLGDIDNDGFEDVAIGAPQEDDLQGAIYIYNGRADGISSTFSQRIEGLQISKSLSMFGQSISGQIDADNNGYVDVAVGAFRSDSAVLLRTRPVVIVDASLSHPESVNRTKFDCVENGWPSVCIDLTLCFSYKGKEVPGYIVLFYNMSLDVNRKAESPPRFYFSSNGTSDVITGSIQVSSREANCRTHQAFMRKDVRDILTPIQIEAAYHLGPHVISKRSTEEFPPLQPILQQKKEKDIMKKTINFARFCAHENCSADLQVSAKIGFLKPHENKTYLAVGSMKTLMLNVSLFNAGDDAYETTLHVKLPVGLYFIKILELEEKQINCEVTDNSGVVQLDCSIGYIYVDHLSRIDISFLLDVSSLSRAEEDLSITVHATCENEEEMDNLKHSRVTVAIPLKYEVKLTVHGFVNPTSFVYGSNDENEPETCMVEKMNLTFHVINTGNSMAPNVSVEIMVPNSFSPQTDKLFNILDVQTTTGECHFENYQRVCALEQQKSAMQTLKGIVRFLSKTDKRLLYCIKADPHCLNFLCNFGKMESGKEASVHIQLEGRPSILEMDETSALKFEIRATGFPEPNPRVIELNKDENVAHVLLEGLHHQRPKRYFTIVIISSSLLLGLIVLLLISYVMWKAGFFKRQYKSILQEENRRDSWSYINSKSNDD
Sequence (P26010 whole entry): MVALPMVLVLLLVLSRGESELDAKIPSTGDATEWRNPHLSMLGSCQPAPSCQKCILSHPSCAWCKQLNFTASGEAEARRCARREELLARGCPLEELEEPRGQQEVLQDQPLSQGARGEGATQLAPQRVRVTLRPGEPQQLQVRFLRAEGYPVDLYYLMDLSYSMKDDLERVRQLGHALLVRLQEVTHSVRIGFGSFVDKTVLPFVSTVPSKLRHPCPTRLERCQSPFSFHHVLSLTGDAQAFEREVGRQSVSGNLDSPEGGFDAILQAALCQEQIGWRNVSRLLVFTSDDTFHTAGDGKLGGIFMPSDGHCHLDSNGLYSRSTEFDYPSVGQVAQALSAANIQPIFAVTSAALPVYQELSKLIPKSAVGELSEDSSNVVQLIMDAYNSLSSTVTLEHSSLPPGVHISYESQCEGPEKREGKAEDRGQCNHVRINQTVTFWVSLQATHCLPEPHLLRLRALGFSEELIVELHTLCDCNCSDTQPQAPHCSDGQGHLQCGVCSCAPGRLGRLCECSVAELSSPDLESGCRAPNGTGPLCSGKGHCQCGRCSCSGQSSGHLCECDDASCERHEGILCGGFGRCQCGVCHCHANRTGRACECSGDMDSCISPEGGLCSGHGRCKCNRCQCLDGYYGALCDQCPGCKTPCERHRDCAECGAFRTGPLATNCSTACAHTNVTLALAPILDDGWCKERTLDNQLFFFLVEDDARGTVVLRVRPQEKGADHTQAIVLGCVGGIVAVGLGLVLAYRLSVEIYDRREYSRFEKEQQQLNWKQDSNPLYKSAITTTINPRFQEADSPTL
Assay: Antagonist activity at integrin alpha4beta7 expressed in human RPMI8866 cells assessed as reduction in cell adhesion to rat MadCAM incubated for 40 to 60 mins by lactate dehydrogenase assay
PROPERTY MEASURED: pEC50
// scale note: pEC50 = -log10(conc_M); give the bare number

Form field: reported pEC50 of "CN(C)c1ccc2c(c1)c(=O)n(-c1ccc(C[C@H](NC(=O)c3c(Cl)cccc3Cl)C(=O)O)cc1)c(=O)n2C"
8.85

###

Target: Integrin alpha-4/beta-1 (Homo sapiens, UniProt P05556+P13612)
Sequence (P05556 whole entry, one chain of several): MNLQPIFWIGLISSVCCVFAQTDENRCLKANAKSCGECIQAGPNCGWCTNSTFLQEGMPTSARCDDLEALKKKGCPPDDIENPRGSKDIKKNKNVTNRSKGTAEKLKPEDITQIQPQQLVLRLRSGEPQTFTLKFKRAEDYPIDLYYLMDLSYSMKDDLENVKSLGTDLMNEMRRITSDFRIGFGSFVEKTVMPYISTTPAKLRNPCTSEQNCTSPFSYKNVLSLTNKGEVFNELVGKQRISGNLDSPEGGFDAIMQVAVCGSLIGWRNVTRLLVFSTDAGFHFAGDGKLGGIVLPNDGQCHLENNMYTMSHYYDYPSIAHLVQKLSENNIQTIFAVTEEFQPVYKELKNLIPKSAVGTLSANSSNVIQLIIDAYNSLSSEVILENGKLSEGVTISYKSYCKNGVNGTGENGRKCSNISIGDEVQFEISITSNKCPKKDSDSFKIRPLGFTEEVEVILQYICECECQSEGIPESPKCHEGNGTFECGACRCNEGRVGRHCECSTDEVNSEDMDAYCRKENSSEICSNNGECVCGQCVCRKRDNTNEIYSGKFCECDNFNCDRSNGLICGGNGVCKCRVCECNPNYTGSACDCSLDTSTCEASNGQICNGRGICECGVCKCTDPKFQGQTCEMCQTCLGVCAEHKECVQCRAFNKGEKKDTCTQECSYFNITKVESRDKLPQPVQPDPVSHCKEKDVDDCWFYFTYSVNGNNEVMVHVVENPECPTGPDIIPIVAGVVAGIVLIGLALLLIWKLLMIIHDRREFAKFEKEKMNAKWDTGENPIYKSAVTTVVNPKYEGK
Assay: Antagonist activity at integrin alpha4beta1 expressed in human Jurkat cells assessed as reduction in cell adhesion to human VCAM-1 incubated for 40 to 60 mins by lactate dehydrogenase assay
PROPERTY MEASURED: pEC50
// scale note: pEC50 = -log10(conc_M); give the bare number

Form field: reported pEC50 of "CN(C)c1ccc2c(c1)c(=O)n(-c1ccc(C[C@H](NC(=O)c3c(Cl)cccc3Cl)C(=O)O)cc1)c(=O)n2C"
8.27
